Test system: TPA-induced ear edema
assay-details: 12-o-tetradecanoylphorbol acetate (TPA)-induced murine ear edema assay
Format: in vivo, mouse (Swiss Webster)
conditions-used: TPA; subcutaneous, 50 m/kg; on line of vehicle acetone
compounds and their reported Subcutaneous % Inhibition at 50 m/kg
Entry rule: numbers only, all in %.

Take a look at these entries with their results.
CCCCC/C=C\C/C=C\C/C=C\CCCCC(=O)C1=C(O)COC1=O    76
CCCCC/C=C\C/C=C\CCCCCCCC(=O)C1=C(O)COC1=O    21
CCCCC/C=C\C/C=C\CCCCCCCC(=O)C1=C(O)CSC1=O    73
CCCCCCCCCC(=O)C1=C(O)COC1=O [Example 1, 4-Hydroxy-3-(1-oxodecyl)-2(5H)-furanone]    23
CCCCCC1CC1CC1CC1CCCCCCCC(=O)C1=C(O)COC1=O (stereo not drawn)    36
CCCCCCCC/C=C\CCCCCCCC(=O)C1=C(O)COC1=O    7

Query string: Entry under review: "CCCC/C=C\CCCCCCCC(=O)C1=C(O)COC1=O" . Reported Subcutaneous % Inhibition at 50 m/kg?
Result string: 64

Query string: Try "CCCCCCCCCCC/C=C\CCCCC(=O)C1=C(O)COC1=O" next.
Result string: 37

Query string: And "CCCCCCCC/C=C\CCCCCCCC(=O)C1=C(O)CSC1=O" ?
Result string: 77

---

Each entry below carries its reported inhibition at 10 µM.
assay-system: human synovial fluid PLA2 (Homo sapiens, UniProt P14555)
Construct: Purified human synovial fluid; from tissue; host or cells: human synovial fluid
Sequence (P14555 21-144): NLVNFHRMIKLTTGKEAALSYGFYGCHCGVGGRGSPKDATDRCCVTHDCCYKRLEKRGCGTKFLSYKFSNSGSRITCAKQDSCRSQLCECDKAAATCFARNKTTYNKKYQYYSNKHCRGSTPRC
assay-details: in vitro isolated phospholipase A2 assay, human synovial fluid PLA2
Type: biochemical
conditions-used: at 10 μM; + values given without explanation; read-out: % Inhibition HSF (human synovial fluid)
Dear colleague, please send the value followed by its unit.

CCCCCCCCC#CCCCCCCCC(=O)C1=C(O)COC1=O    31.2%
CCCCCCCC/C=C\CCCCCCCC(=O)OCC(CCC(=O)O)OC(=O)CCCCCCC/C=C\CCCCCCCC (stereo not shown) [Example 24A]    80.7%
CCCC/C=C\CCCCCCCC(=O)C1=C(O)COC1=O    28.8%

Kindly consider the entry below.
Query string: Bench note: what inhibition at 10 µM did "O=C(CCCCCCC/C=C\c1ccc(Cl)cc1)C1=C(O)COC1=O" show?
Result string: 28.4%

---

Collected inhibition at 10 µM values appear next to each entry.
Test system: LTB4 biosynthesis in purified human neutrophils
assay-details: LTB4 biosynthesis in human polymorphonuclear neutrophils (in vitro phospholipase A2 assay)
Type: cell-based
conditions-used: Neutrophil; 10 μM; human PMN
Provide only the numeric value, understood in %.

Record excerpt, results attached:
CCCCCCCCCC(=O)C1=C(O)COC1=O [Example 1, 4-Hydroxy-3-(1-oxodecyl)-2(5H)-furanone]    37
CCCC/C=C\CCCCCCCC(=O)C1=C(O)COC1=O    74
O=C(CCCCCCC/C=C\c1ccc(Cl)cc1)C1=C(O)COC1=O    81.6

Query string: Using the record for CCCCCC1CC1CC1CC1CCCCCCCC(=O)C1=C(O)COC1=O (centres unmarked) , report its inhibition at 10 µM.
Result string: 93

Query string: Try the molecule "CCCCC/C=C\C/C=C\CCCCCCCC(=O)C1=C(O)COC1=O"
Result string: 30
